Test: logP by HPLC on reversed-phase column (C 18), EEC Directive 79/831 Annex V.A8
Type: physicochemical
Settings: C 18, 40° C., 0.1% aqueous formic acid and acetonitrile
If the reported logPa equals or exceeds 3, assign criterion met. If not, assign criterion not met.

{"columns": ["Compound", "Class Assignment"],
 "data": [
  ["Cc1cc(/N=C/N2CCCCC2)c(Cl)cc1Oc1ccc(Cl)c(C(C)(C)C)c1", "criterion met"],
  ["Cc1cc(Oc2cc(Cl)c(/N=C/N3CCCCC3C)cc2C)ccc1Cl (racemic)", "criterion not met"],
  ["Cc1cc(Oc2ccc(Cl)c(C(C)(C)C)c2)c(Cl)cc1/N=C/N1CCCCC1", "criterion met"],
  ["CCN(C)/C(S)=N/c1cc(C)c(Oc2ccc(Cl)c(C(C)(C)C)c2)cc1C", "criterion met"],
  ["Cc1cc(Oc2cc(Cl)c(/N=C/N3CCCCC3)cc2C)ccc1Cl", "criterion not met"]
]}

Item Cc1cc(Oc2ccc(Cl)c(C(C)(C)C)c2)c(C)cc1/N=C/N1CCC(F)(F)CC1 with logPa of 3 or above?
criterion met

Item Cc1cc(Oc2ccc(Br)c(C(C)C)c2)c(Cl)cc1/N=C/N(C)C1CC1 with logPa of 3 or above?
criterion met

---

Assay: logP by HPLC on reversed-phase column (C 18), EEC Directive 79/831 Annex V.A8
Format: physicochemical
Conditions: reversed-phase HPLC column (C 18), C 18, 40° C., 0.1% aqueous formic acid and acetonitrile, read-out: logPa
Procedure: Temperature: 40° C.; Mobile phases: 0.1% aqueous formic acid and acetonitrile; linear gradient from 10% acetonitrile to 90% acetonitrile. Calibration was carried out using unbranched alkan-2-ones (comprising 3 to 16 carbon atoms) with known logP values (determination of the logP values by the retention times using linear interpolation between two successive alkanones).
Quantity Kind: chromatographic logP
Give the figure only, with no unit attached.

Below: 6 compounds and their reported chromatographic logP.
{"columns": ["Compound", "chromatographic logP"],
 "data": [
  ["CCC(C)N(C)/C=N/c1cc(Cl)c(Oc2ccc(Cl)c(C(C)(C)C)c2)cc1C (stereo not drawn)", 3.19],
  ["CCN(C)/C(S)=N/c1cc(C)c(Oc2ccc(Cl)c(C(C)(C)C)c2)cc1C", 5.12],
  ["CCCN(C)/C=N/c1cc(Cl)c(Oc2ccc(Cl)c(CC)c2)cc1C", 2.84],
  ["CCCN(C)/C=N/c1cc(Cl)c(Oc2ccc(Br)c(C(C)C)c2)cc1C", 2.91],
  ["CCCN(C)/C=N/c1cc(C)c(Oc2ccc(Cl)c(CC)c2)cc1C", 2.76],
  ["CCN(C)/C=N/c1cc(C)c(Oc2ccc(Cl)c(C)c2)cc1Cl", 2.39]
]}

State the recorded chromatographic logP for this entry: Cc1cc(Oc2ccc(Br)c(C(C)C)c2)c(Cl)cc1/N=C/N(C)C(C)C
3.21

State the recorded chromatographic logP for this entry: CCN(C)/C=N/c1cc(C)c(Oc2ccc(Cl)c(C(C)C)c2)cc1Cl
2.78

---

As shown below, each of these compounds has a reported chromatographic logP value.
Test: logP by HPLC on reversed-phase column (C 18), EEC Directive 79/831 Annex V.A8
Format: physicochemical
Conditions: reversed-phase HPLC column (C 18), C 18, 40° C., 0.1% aqueous formic acid and acetonitrile, read-out: logPa

Below: 8 compounds and their reported chromatographic logP.
{"columns": ["Compound", "chromatographic logP"],
 "data": [
  ["CCCN(C)/C=N/c1cc(C)c(Oc2ccc(Cl)c(C(C)(C)C)c2)cc1C [Example 8]", 3.3],
  ["CCN(C)/C=N/c1cc(C)c(Oc2ccc(Cl)c(CC(C)C)c2)cc1C [Example 56]", 2.92],
  ["CCN(C)/C=N/c1cc(C)c(Oc2ccc(Br)c(C(C)C)c2)cc1C [Example 19]", 3.04],
  ["CCN(C)/C=N/c1cc(Cl)c(Oc2ccc(Cl)c(C(C)C)c2)cc1C [Example 20]", 2.95],
  ["Cc1cc(/N=C/N(C)C(C)C)c(Cl)cc1Oc1ccc(Cl)c(C(C)(C)C)c1 [Example 39]", 3.01],
  ["Cc1cc(Oc2ccc(Cl)c(C(C)(C)C)c2)c(C)cc1/N=C/N(C)C(C)C [Example 9]", 3.42],
  ["CCN(C)/C=N/c1cc(C)c(Oc2ccc(Cl)c(C(C)C)c2)cc1C [Example 3]", 2.75],
  ["Cc1cc(Oc2cc(Cl)c(/N=C/N(C)C(C)C)cc2C)ccc1Cl [Example 50]", 2.48]
]}

State the recorded chromatographic logP for this entry: CCCN(C)/C=N/c1cc(C)c(Oc2ccc(Cl)c(C(C)C)c2)cc1C [Example 27]
3

State the recorded chromatographic logP for this entry: CCN(C)/C=N/c1cc(Cl)c(Oc2ccc(Br)c(C(C)C)c2)cc1C [Example 30]
2.84

State the recorded chromatographic logP for this entry: CCC(C)N(C)/C=N/c1cc(C)c(Oc2ccc(Cl)c(C(C)C)c2)cc1C (centres unmarked) [Example 41]
2.98

---

Assay: logP by HPLC on reversed-phase column (C 18), EEC Directive 79/831 Annex V.A8
Format: physicochemical
Settings: reversed-phase HPLC column (C 18), C 18, 40° C., 0.1% aqueous formic acid and acetonitrile, read-out: logPa
Quantity Kind: chromatographic logP
Give the figure only, with no unit attached.

Below: 4 compounds and their reported chromatographic logP.
{"columns": ["Compound", "Meas Value"],
 "data": [
  ["CCc1cc(Oc2cc(C)c(/N=C/N(C)CC)cc2C)ccc1Cl", 2.56],
  ["Cc1cc(Oc2ccc(Cl)c(C(C)C)c2)c(C)cc1/N=C/N(C)C(C)C", 2.74],
  ["Cc1cc(Oc2cc(C)c(/N=C/N(C)C(C)C)cc2C)ccc1Cl", 2.4],
  ["CCCN(C)/C=N/c1cc(Cl)c(Oc2ccc(Cl)c(C(C)C)c2)cc1C", 3.03]
]}

State the recorded chromatographic logP for this entry: CCC(C)N(C)/C=N/c1cc(Cl)c(Oc2ccc(Cl)c(C(C)C)c2)cc1C (centres unmarked)
2.9

---

Assay: logP by HPLC on reversed-phase column (C 18), EEC Directive 79/831 Annex V.A8
Type: physicochemical
Conditions: reversed-phase HPLC column (C 18), C 18, 40° C., 0.1% aqueous formic acid and acetonitrile, read-out: logPa
As shown below, each of these molecules has a reported chromatographic logP value.
Give the figure only, with no unit attached.

Below: 3 molecules and their reported chromatographic logP.
{"columns": ["Molecule", "chromatographic logP"],
 "data": [
  ["CCN(C)/C=N/c1cc(Br)c(Oc2ccc(Cl)c(C(C)(C)C)c2)cc1C [Example 63]", 2.67],
  ["Cc1cc(Oc2ccc(Cl)c(C(C)C)c2)c(Cl)cc1/N=C/N(C)C(C)C [Example 22]", 3.17],
  ["CCC(C)N(C)/C=N/c1cc(C)c(Oc2ccc(Cl)c(C(C)(C)C)c2)cc1C (stereo not shown) [Example 40]", 3.2]
]}

Moving on to the next molecule.
State the recorded chromatographic logP for this entry: Cc1cc(Oc2ccc(Br)c(C(C)C)c2)c(C)cc1/N=C/N(C)C(C)C [Example 18]
3.34

---

As shown below, each of these compounds has a reported logPa value.
Assay: logP by HPLC on reversed-phase column (C 18), EEC Directive 79/831 Annex V.A8
Type: physicochemical
Conditions: C 18, 40° C., 0.1% aqueous formic acid and acetonitrile
Give the figure only, with no unit attached.

Below: 6 compounds and their reported logPa.
{"columns": ["Compound", "logPa"],
 "data": [
  ["Cc1cc(Oc2ccc(Cl)c(C(C)(C)C)c2)c(Cl)cc1/N=C/N(C)C1CC1", 3.24],
  ["CCN(C)/C=N/c1cc(C)c(Oc2ccc(Cl)c(CC(C)(C)C)c2)cc1C", 3.11],
  ["CCN(C)/C=N/c1cc(C)c(Oc2ccc(Cl)c(C(C)(C)OC)c2)cc1C", 2.26],
  ["CCN(C)/C=N/c1cc(C)c(Oc2ccc(Cl)c(C3CCCC3)c2)cc1C", 3.28],
  ["Cc1cc(/N=C/N2CCCCC2C)c(Cl)cc1Oc1ccc(Cl)c(C(C)C)c1 (racemic)", 3.07],
  ["Cc1cc(Oc2ccc(Cl)c(C(C)(C)C)c2)c(C)cc1/N=C/N(C)C1CC1", 2.21]
]}

State the recorded logPa for this entry: Cc1cc(Oc2ccc(Cl)c(CC(C)(C)C)c2)c(C)cc1/N=C/N1CCCCC1
3.19

State the recorded logPa for this entry: CCN(C)/C=N/c1cc(C)c(Oc2ccc(Cl)c(C3CCCCC3)c2)cc1C
3.18

---

Experiment: logP by HPLC on reversed-phase column (C 18), EEC Directive 79/831 Annex V.A8
Type: physicochemical
As shown below, each of these compounds has a reported log P (pH 2.3) value.
Give the figure only, with no unit attached.

Below: 3 compounds and their reported log P (pH 2.3).
{"columns": ["Chem Smiles", "log P (pH 2.3)"],
 "data": [
  ["CCN(C)C=Nc1cc(Cl)c(Oc2ccc(Cl)c(C(C)(C)C)c2)cc1C", 2.80],
  ["Cc1cc(Oc2ccc(Cl)c(C(C)(C)C)c2)c(Cl)cc1[N+](=O)[O-]", 6.32],
  ["Cc1cc(Oc2ccc(Cl)c(C(C)(C)C)c2)c(Cl)cc1N", 5.68]
]}

State the recorded log P (pH 2.3) for this entry: Cc1cc(Oc2ccc(Cl)c(C(C)(C)C)c2)c(C)cc1N
4.38

State the recorded log P (pH 2.3) for this entry: Cc1cc([N+](=O)[O-])c(C)cc1Oc1ccc(Cl)c(C(C)(C)C)c1
6.32

State the recorded log P (pH 2.3) for this entry: CCN(C)C=Nc1cc(C)c(Oc2ccc(Cl)c(C(C)(C)C)c2)cc1C
3.04
